TEST SYSTEM: T1, human CD70 (human, UniProt P32970 1-193)
T1 construct: also called hu CD70; CD27L
T1 sequence: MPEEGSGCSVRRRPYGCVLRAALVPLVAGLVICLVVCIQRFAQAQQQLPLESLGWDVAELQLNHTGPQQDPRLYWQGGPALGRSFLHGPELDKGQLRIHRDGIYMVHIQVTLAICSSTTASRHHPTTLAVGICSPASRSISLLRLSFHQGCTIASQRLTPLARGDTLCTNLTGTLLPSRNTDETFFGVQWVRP
ASSAY DETAILS: FACS on CHO cells, periplasmic scFv
VALUE KIND: binding result

CD70-33 (scFv, As m32) scFv: EVQLLESGGGLVQPGGSLRLSCAASGFTFSTYAMSWVRQAPGKGLEWVSTISDSGGSTFYADSVMGRFTISRDNSKNTLYLQMNSLRAEDTAVYYCARHDYSNYAFFDYWGQGTLVTVSSGGGGSGGGGSGGGGSEIVLTQSPATLSVSPGERATLSCRASQSVSSNLAWYQQKPGQAPRLLIYGASSRATGIPDRFSGSGSGTDFTLTISSLQAEDVAVYYCQQYYSTPFTFGPGTKVEIK ... binds
CD70-34 (scFv, As m32) scFv: EVQLLESGGGLVQPGGSLRLSCAASGFTFSTYAMSWVRQAPGKGLEWVSTISDSGGSTFYADSVMGRFTISRDNSKNTLYLQMNSLRAEDTAVYYCARHDYSNYAFFDYWGQGTLVTVSSGGGGSGGGGSGGGGSEIVLTQSPATLSVSPGERATLSCRASQSVSSNLAWYQQKPGQAPRLLIYGASTRATGIPARFSGSGSGTEFTLAISRLEPEDFAVYYCQQYYSTPFTFGGGTKVEIK ... binds
CD70-57 (scFv) scFv: QVQLVESGGGVVQPGRSLRLSCAASGFTFSSYGMHWVRQAPGKGLEWVAVIWYDGSSEYYADSVKGRFTISRDNSKNTLYLQMNSLRAEDTAVYYCARDNSYNYYGMDVWGQGTTVTVSSGGGGSGGGGSGGGGSQSVLTQPPSVSGAPGQRVTISCTGSSSNIGAAYDVHWYQQFPGTAPKLLIYVNSHRPPGVPDRFSGSKSGTSASLAITGLQAEDEADYYCLSYDNSLSGSVFGGGTKLTVL ... binds
